As shown below, each of these compounds has a reported Dmax value.
ASSAYED SYSTEM: Androgen Receptor (Homo sapiens, UniProt P10275)
Construct: endogenous in cells; host or cells: VCaP cells
Sequence (P10275 whole entry): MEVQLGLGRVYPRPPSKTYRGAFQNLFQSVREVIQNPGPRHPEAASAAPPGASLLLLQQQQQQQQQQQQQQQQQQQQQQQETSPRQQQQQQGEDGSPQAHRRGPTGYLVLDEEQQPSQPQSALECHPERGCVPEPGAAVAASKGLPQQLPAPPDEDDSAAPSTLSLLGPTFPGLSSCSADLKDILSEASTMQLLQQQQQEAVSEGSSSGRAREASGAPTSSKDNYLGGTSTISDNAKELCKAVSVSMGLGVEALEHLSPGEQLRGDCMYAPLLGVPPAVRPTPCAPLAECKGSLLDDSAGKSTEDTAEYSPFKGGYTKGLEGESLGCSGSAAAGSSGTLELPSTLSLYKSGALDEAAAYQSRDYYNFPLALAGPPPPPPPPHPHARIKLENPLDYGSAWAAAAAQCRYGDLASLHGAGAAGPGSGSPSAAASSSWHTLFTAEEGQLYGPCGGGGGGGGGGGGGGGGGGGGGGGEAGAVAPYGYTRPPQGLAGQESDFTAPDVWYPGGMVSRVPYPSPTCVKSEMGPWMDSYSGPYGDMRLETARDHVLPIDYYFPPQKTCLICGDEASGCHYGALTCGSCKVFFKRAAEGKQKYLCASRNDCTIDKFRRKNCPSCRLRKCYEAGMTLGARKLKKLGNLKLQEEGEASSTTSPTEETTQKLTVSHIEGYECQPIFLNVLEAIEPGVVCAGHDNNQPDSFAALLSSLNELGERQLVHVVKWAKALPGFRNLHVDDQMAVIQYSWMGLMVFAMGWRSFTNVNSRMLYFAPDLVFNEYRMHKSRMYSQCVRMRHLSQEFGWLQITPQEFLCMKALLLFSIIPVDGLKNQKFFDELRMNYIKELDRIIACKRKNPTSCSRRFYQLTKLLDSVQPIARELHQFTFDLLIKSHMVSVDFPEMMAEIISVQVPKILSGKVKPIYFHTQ
ASSAY EXPLANATION: Androgen Receptor ELISA assay (PathScan AR ELISA) in VCaP cells: AR degradation, Dmax and DC50
Format: cell-based
SETTINGS: VCaP, read-out: VCaP Dmax (%)

| COMPOUND | ASSAY ENDPOINT | ASSAY VALUE |
| --- | --- | --- |
| Cc1ncsc1-c1ccc(CNC(=O)[C@@H]2C[C@@H](O)CN2C(=O)[C@@H](NC(=O)OCCCCCOc2ccc(-c3ccc(N4C(=S)N(c5ccc(C#N)c(C(F)(F)F)c5)C(=O)C4(C)C)cc3)cc2)C(C)(C)C)cc1 [Example 74] | Dmax | 26 to 50% |

Here is another compound to look at.
Item: Cc1ncsc1-c1ccc(CNC(=O)[C@@H]2C[C@@H](O)CN2C(=O)[C@@H](NC(=O)CCCOCCOCCCOc2ccc(N3C(=S)N(c4ccc(C#N)c(C(F)(F)F)c4)C(=O)C3(C)C)cc2)C(C)(C)C)cc1 [Example 300] | Dmax: 51 to 70%
